Measured inhibition at 10 µM of individual entries
target.or.test.system: cloned human μ opioid receptor (Homo sapiens)
Sequence (P35372 whole entry): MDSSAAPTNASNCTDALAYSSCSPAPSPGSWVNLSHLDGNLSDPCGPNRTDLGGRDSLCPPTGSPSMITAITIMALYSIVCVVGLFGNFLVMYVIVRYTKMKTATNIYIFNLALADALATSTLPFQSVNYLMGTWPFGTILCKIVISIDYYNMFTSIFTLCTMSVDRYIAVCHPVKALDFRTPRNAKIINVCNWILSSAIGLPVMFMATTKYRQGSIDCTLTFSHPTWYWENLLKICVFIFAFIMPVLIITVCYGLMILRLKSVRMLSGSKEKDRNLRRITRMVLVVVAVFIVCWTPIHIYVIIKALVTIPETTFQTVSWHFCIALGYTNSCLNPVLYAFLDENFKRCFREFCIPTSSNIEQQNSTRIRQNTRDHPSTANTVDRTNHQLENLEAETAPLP
assay.comment: Opioid receptor binding assay, [3H]diprenorphine, CHO cell membranes
assay.conditions: 10 μM; [3H]diprenorphine binding; read-out: % Inhibition @ 10 μM, μ
All answers are understood in %, so give the number only.

Would you please look over these solved cases?
INSERT INTO results (item_smiles, value_measured) VALUES
  ('CN1CCN(C2=Nc3ccccc3Oc3ccc(Cl)cc32)CC1', 0),
  ('CN1CCN(C2=Nc3cc(Cl)ccc3Nc3ccccc32)CC1', 17);

Given the entry Clc1ccc2c(c1)N=C(N1CCNCC1)c1ccccc1N2 , report its measured inhibition at 10 µM.
17

Given the entry Clc1ccc2c(c1)C(N1CCNCC1)=Nc1ccccc1O2 , report its measured inhibition at 10 µM.
18
